Value source: ChEMBL document CHEMBL1201862

molecules and their reported GI50
- System: ACHN
- assay_procedure: NCI tumour cell line growth inhibition, 48 h
Activity calls are given as the source filed them. Rule as the data show it: active = GI50 up to about 1.1 µM and inactive = higher.

[
  {
    "molecule": "O=C(O)c1cccc(NC(C(=O)c2ccccc2)c2ccccc2)c1 (stereo not given)",
    "GI50": "> 100 µM (inactive)"
  },
  {
    "molecule": "Cn1c(=O)nc2n(-c3ccc(F)c(F)c3)c3ccccc3nc-2c1=O",
    "GI50": "8.79 µM (inactive)"
  },
  {
    "molecule": "CCCOc1ccc(/C(Cl)=C(\\C=O)c2ccc(OC)c(OC)c2)cc1OCCC",
    "GI50": "9.31 µM (inactive)"
  },
  {
    "molecule": "[N-]=[N+]=Nc1nnc(CCCCc2nnc(N=[N+]=[N-])o2)o1",
    "GI50": "> 100 µM (inactive)"
  },
  {
    "molecule": "Cc1csc2nc(-c3ccncc3)cn12",
    "GI50": "> 100 µM (inactive)"
  },
  {
    "molecule": "CC(=O)C1=C(C)N2C(=NC3=C(CCc4ccccc43)C2c2ccc(Cl)cc2)S1 (stereo not given)",
    "GI50": "> 100 µM (inactive)"
  },
  {
    "molecule": "O=C1N/C(=N/N=C/c2c[nH]c3ccccc23)N/C1=C\\c1cccs1",
    "GI50": "> 100 µM (inactive)"
  },
  {
    "molecule": "CCOC(=O)c1c(NC(=O)OC)c(C#N)c2n1CCCCC2",
    "GI50": "> 100 µM (inactive)"
  },
  {
    "molecule": "COC(=O)C(C)(C)OCc1ccc(C2NC(=O)N(c3cccc(Cl)c3)C(=O)N2c2cccc(Cl)c2)cc1 (stereo not given)",
    "GI50": "47.9 µM (inactive)"
  },
  {
    "molecule": "CC1=C(O)C(=O)C2=C(C1=O)[C@@H]([C@@H](C)C/C=C/C(C)(C)O)CC[C@@H]2C",
    "GI50": "31.4 µM (inactive)"
  }
]

###

- Test system: 786-0
- assay_procedure: NCI tumour cell line growth inhibition, 48 h
Calls of active or inactive are those of the source. Cut-off read from the data, not from the text of the source: active = GI50 up to about 1.1 µM and inactive = higher. Residues, ends and D or L forms follow the SMILES beside them. *: point of attachment. Boc = CC(C)(C)OC(=O)*; OBn = c1ccc(CO*)cc1

[
  {
    "molecule": "O=C(/C=C/c1ccc(O)c(O)c1)OCCc1cccc2ccccc12",
    "GI50": "3 µM (inactive)"
  },
  {
    "molecule": "Cc1ccnc(NC(NC(=O)c2ccccc2)(C(F)(F)F)C(F)(F)F)c1",
    "GI50": "> 100 µM (inactive)"
  },
  {
    "molecule": "N#CCC(=O)N/N=C1/C(=O)NC(=O)C(=O)C1c1nc2ccccc2s1 (configuration not stated)",
    "GI50": "> 100 µM (inactive)"
  },
  {
    "molecule": "CN(C)CCN1Nc2c3ccccc3nc3c(C(=O)NCCCN(C)CCCNC(=O)c4ccc5c6c(c7ccccc7nc46)NN5CCN(C)C)ccc1c23",
    "GI50": "< 0.01 µM (active)"
  },
  {
    "molecule": "COc1ccccc1-c1cc(=O)c2ccc(OC)c(OC)c2o1",
    "GI50": "89.1 µM (inactive)"
  },
  {
    "molecule": "CC(C)(OCc1ccccc1)c1ccccc1P(c1ccccc1)c1ccccc1",
    "GI50": "66.4 µM (inactive)"
  },
  {
    "molecule": "O/N=N\\c1nc(-c2ccccn2)nc2ccccc12",
    "GI50": "3.68 µM (inactive)"
  },
  {
    "molecule": "CN/N=C(\\C(=O)Nc1ccc(C(F)(F)F)cc1[N+](=O)[O-])C(c1cnc2ccc([N+](=O)[O-])cc2n1)[N+](=O)[O-] (configuration not stated)",
    "GI50": "32.4 µM (inactive)"
  },
  {
    "molecule": "Oc1cc(-c2ccco2)nc2cc3c(cc12)OCO3",
    "GI50": "26.5 µM (inactive)"
  },
  {
    "molecule": "COc1cccc2c1cc([N+](=O)[O-])c1c(C(=O)O)cc3c(c12)OCO3",
    "GI50": "37.2 µM (inactive)"
  },
  {
    "molecule": "CC(C)C(NC(=O)CNC(=O)C1CCCN1C(=O)C(NC(=O)OC(C)(C)C)C(C)C)C(=O)NCC(=O)OCc1ccccc1 (configuration not stated) (Boc-VPGVG-OBn; configuration not given here)",
    "GI50": "> 100 µM (inactive)"
  },
  {
    "molecule": "N=C(N)N/N=C/c1c(-c2ccc([N+](=O)[O-])cc2)nc2sccn12",
    "GI50": "1.47 µM (inactive)"
  },
  {
    "molecule": "Cc1ccc(S(=O)(=O)c2c(O)c3ccc(O)c(C)c3oc2=O)cc1",
    "GI50": "> 100 µM (inactive)"
  },
  {
    "molecule": "CC(=O)OCC(=O)[C@@]12OC(C)(C)O[C@@H]1C[C@H]1[C@@H]3CC=C4C[C@@H](O)CC[C@]4(C)[C@H]3CC[C@@]12C",
    "GI50": "41.4 µM (inactive)"
  },
  {
    "molecule": "Nc1ccc(Sc2nnc(N)s2)cc1",
    "GI50": "> 100 µM (inactive)"
  },
  {
    "molecule": "O=C(COc1ccc(Cl)c(Cl)c1)N(Cc1ccccc1)Cc1ccc[n+](Cc2ccc(Cl)cc2S(=O)(=O)F)c1",
    "GI50": "> 100 µM (inactive)"
  },
  {
    "molecule": "Cc1ccc2c(=O)cc(-c3ccc(-c4ccccc4)s3)[nH]c2n1",
    "GI50": "16.1 µM (inactive)"
  },
  {
    "molecule": "NC1=NN(c2ccccc2)C(=O)C1C(=O)C(=O)Nc1nccs1 (configuration not stated)",
    "GI50": "> 100 µM (inactive)"
  },
  {
    "molecule": "CSc1ncc2c(n1)sc1c(=O)n(-c3ccccc3)cnc12",
    "GI50": "> 100 µM (inactive)"
  },
  {
    "molecule": "O=C(CCCn1ccnc1[N+](=O)[O-])NCCn1cncc1[N+](=O)[O-]",
    "GI50": "> 100 µM (inactive)"
  },
  {
    "molecule": "CCOP(=O)(OCC)C1C(=O)O[C@H]2CCCC[C@@H]12 (some centres not stated)",
    "GI50": "> 100 µM (inactive)"
  },
  {
    "molecule": "Cc1c(F)c(N)c2c(=O)cc(-c3ccc(N)c(F)c3)oc2c1F",
    "GI50": "14.2 µM (inactive)"
  },
  {
    "molecule": "COC(C)(C)[C@H](O)C(O)CC(C)[C@@H]1CCC23CC12CCC1[C@@]2(C)CCC(OC(C)=O)C(C)(C)C2CC(OC2OC(COC(C)=O)C(O)C(O)C2O)[C@]13C (some centres not stated)",
    "GI50": "6.58 µM (inactive)"
  },
  {
    "molecule": "Cc1cc(-c2nc3ccc(F)cc3s2)ccc1NC(=O)C(N)CCCCN (configuration not stated)",
    "GI50": "3.21 µM (inactive)"
  },
  {
    "molecule": "Cc1nnc2sc(-c3ccc(N)cc3)nn12",
    "GI50": "> 100 µM (inactive)"
  },
  {
    "molecule": "O=C1CCCC1C(O)(C(F)(F)F)C(F)(F)F (configuration not stated)",
    "GI50": "> 100 µM (inactive)"
  },
  {
    "molecule": "CCC(c1ccccc1)c1cc(C(C)(C)C)cc(C(C)(C)C)c1O (configuration not stated)",
    "GI50": "15.6 µM (inactive)"
  },
  {
    "molecule": "CC1=CC(C)C(C)N(CCNC(=O)Nc2ccccc2)c2ccccc21 (configuration not stated)",
    "GI50": "30.3 µM (inactive)"
  },
  {
    "molecule": "O=[N+]([O-])c1ccc2c(c1)c(OCc1ccccc1)nn2Cc1ccccc1",
    "GI50": "55 µM (inactive)"
  },
  {
    "molecule": "CC(=O)NC1C(OCc2ccccc2)OC(CO)C(O)C1OCC(=O)NC(C(=O)NC(CCC(=O)NCCCCCC(=O)Nc1ccc2c(c1)CN1C(=O)c3ccccc3C1=N2)C(N)=O)C(C)C (configuration not stated)",
    "GI50": "16.4 µM (inactive)"
  },
  {
    "molecule": "Cn1c(=O)nc2n(-c3ccc(F)c(F)c3)c3ccccc3nc-2c1=O",
    "GI50": "32.7 µM (inactive)"
  },
  {
    "molecule": "O=C(/N=C1/OC(CN2CCOCC2)CN1C(=O)Nc1ccccc1)Nc1ccccc1 (configuration not stated)",
    "GI50": "> 100 µM (inactive)"
  },
  {
    "molecule": "[N-]=[N+]=Nc1nnc(CCCCc2nnc(N=[N+]=[N-])o2)o1",
    "GI50": "> 100 µM (inactive)"
  },
  {
    "molecule": "Clc1ccc(/C=C/c2nc(Cl)c(-c3ccc(Cl)cc3)c(Cl)n2)cc1",
    "GI50": "43.8 µM (inactive)"
  },
  {
    "molecule": "Oc1ccc2c3c1OC1C(=NN=C4CCC5(O)C6Cc7ccc(O)c8c7C5(CCN6CC5CC5)C4O8)CCC4(O)C(C2)N(CC2CC2)CCC314 (configuration not stated)",
    "GI50": "24.9 µM (inactive)"
  },
  {
    "molecule": "CSc1c(C#N)c(=O)n(N)c2c1c(C)nn2-c1ccccc1",
    "GI50": "40.5 µM (inactive)"
  },
  {
    "molecule": "CC(C)(C)C1CC[C@H]2c3c([nH]c4ccc(Br)cc34)[C@H]3C(=O)N(c4ccccc4)C(=O)[C@H]3[C@H]2C1 (some centres not stated)",
    "GI50": "6.67 µM (inactive)"
  }
]
